Just for reference, paper PMC5177531 is where these values come from.

biological target: UniProt P32300; assay: Competition binding versus 125I-IBNtxA in mDOR-CHO membranes
Sequence (P32300 whole entry): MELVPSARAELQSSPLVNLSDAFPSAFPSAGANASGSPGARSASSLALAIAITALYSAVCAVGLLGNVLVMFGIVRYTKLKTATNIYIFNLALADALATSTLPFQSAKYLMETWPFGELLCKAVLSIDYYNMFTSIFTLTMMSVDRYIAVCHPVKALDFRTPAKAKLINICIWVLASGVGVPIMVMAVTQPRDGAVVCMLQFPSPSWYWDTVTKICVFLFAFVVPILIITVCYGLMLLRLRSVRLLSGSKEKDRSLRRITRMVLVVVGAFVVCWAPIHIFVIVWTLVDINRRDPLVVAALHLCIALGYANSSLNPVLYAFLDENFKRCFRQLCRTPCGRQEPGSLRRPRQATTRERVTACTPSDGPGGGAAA
Non-standard residues stand in square brackets, D forms with d. Residues, ends and D or L forms follow the SMILES beside them. Dmt = Cc1cc(O)cc(C)c1C[C@H](N)C(=O)O; βAla = NCCC(=O)O; Sar = CNCC(=O)O

molecule | studyTarget | Ki, nM
C[C@@H](NC(=O)[C@@H](N)Cc1ccc(O)cc1)C(=O)N[C@@H](Cc1ccccc1)C(=O)NCCC(N)=O [TAPA, Tyr-D-Ala-Phe-βAla-NH2] (H-Y[dA]F[βAla]-NH2) | UniProt P32300 | 48
C[C@@H](NC(=O)[C@@H](N)Cc1ccc(O)cc1)C(=O)N[C@@H](Cc1ccccc1)C(=O)N[C@@H](Cc1ccccc1)C(N)=O [TAPP, Tyr-D-Ala-Phe-Phe-NH2] (H-Y[dA]FF-NH2) | UniProt P32300 | 3
CC[C@H](C)[C@H](NC(=O)[C@H](Cc1ccccc1)NC(=O)[C@H](Cc1ccccc1)NC(=O)[C@@H](C)NC(=O)[C@@H](N)Cc1ccc(O)cc1)C(N)=O [TAPPI, Tyr-D-Ala-Phe-Phe-Ile-NH2] (H-Y[dA]FFI-NH2) | UniProt P32300 | 6
CC[C@H](C)[C@H](NC(=O)[C@H](Cc1ccccc1)NC(=O)[C@H](Cc1ccccc1)NC(=O)[C@@H](C)NC(=O)[C@@H](N)Cc1c(C)cc(O)cc1C)C(N)=O [DAPPI, Dmt-D-Ala-Phe-Phe-Ile-NH2] (H-[Dmt][dA]FFI-NH2) | UniProt P32300 | 0.3
C[C@@H](NC(=O)[C@@H](N)Cc1ccc(O)cc1)C(=O)N[C@@H](Cc1ccccc1)C(=O)N(C)CC(N)=O [TAPS, Tyr-D-Ala-Phe-Sar-NH2] (H-Y[dA]F[Sar]-NH2) | UniProt P32300 | 35

----------
molecular target: mMOR-1 (Mus musculus, UniProt P42866)
Sequence (P42866 whole entry): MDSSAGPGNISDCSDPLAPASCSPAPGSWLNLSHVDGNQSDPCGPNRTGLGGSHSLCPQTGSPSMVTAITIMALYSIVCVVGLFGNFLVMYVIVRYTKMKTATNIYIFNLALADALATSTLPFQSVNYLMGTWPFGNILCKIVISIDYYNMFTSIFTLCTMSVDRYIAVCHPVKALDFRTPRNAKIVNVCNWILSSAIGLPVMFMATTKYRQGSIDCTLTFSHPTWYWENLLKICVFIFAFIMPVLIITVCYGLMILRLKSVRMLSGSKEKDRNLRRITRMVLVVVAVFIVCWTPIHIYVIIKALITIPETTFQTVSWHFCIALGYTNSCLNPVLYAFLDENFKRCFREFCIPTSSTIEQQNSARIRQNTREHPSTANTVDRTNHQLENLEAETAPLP
pKi: −log10 of the molar value. Non-standard residues stand in square brackets, D forms with d. Residues, ends and D or L forms follow the SMILES beside them. Dmt = Cc1cc(O)cc(C)c1C[C@H](N)C(=O)O; Tic = O=C(O)[C@@H]1Cc2ccccc2CN1; βAla = NCCC(=O)O; Sar = CNCC(=O)O
Cut-off 9 on pKi, inclusive. At or above means 1; below means 0.

compound | assignedClass
CC[C@H](C)[C@H](NC(=O)[C@H](Cc1ccccc1)NC(=O)[C@H](Cc1ccccc1)NC(=O)[C@@H](C)NC(=O)[C@@H](N)Cc1c(C)cc(O)cc1C)C(N)=O [DAPPI, Dmt-D-Ala-Phe-Phe-Ile-NH2] (H-[Dmt][dA]FFI-NH2) | 1
CC(C)[C@H](NC(=O)[C@H](Cc1ccccc1)NC(=O)[C@H](Cc1ccccc1)NC(=O)[C@@H](C)NC(=O)[C@@H](N)Cc1ccc(O)cc1)C(N)=O [TAPPV, Tyr-D-Ala-Phe-Phe-Val-NH2] (H-Y[dA]FFV-NH2) | 0
N[C@@H](Cc1ccc(O)cc1)C(=O)N1Cc2ccccc2C[C@H]1C(=O)N[C@@H](Cc1ccccc1)C(=O)N[C@@H](Cc1ccccc1)C(=O)O [TIPP, Tyr-Tic-Phe-Phe-OH] (H-Y[Tic]FF-OH) | 0
C[C@@H](NC(=O)[C@@H](N)Cc1ccc(O)cc1)C(=O)N[C@@H](Cc1ccccc1)C(=O)NCC(=O)N[C@@H](Cc1ccc(O)cc1)C(=O)N1CCC[C@H]1C(=O)N[C@@H](CO)C(N)=O [Dermorphin, Tyr-D-Ala-Phe-Gly-Tyr-Pro-Ser-NH2] | 0
C[C@@H](NC(=O)[C@@H](N)Cc1ccc(O)cc1)C(=O)N[C@@H](Cc1ccccc1)C(=O)N(C)CC(N)=O [TAPS, Tyr-D-Ala-Phe-Sar-NH2] (H-Y[dA]F[Sar]-NH2) | 0
C[C@@H](NC(=O)[C@@H](N)Cc1ccc(O)cc1)C(=O)N[C@@H](Cc1ccccc1)C(=O)N[C@@H](Cc1ccccc1)C(N)=O [TAPP, Tyr-D-Ala-Phe-Phe-NH2] (H-Y[dA]FF-NH2) | 0
C[C@@H](NC(=O)[C@@H](N)Cc1ccc(O)cc1)C(=O)N[C@@H](Cc1ccccc1)C(=O)NCCC(N)=O [TAPA, Tyr-D-Ala-Phe-βAla-NH2] (H-Y[dA]F[βAla]-NH2) | 0
CC[C@H](C)[C@H](NC(=O)[C@H](Cc1ccccc1)NC(=O)[C@H](Cc1ccccc1)NC(=O)[C@@H](C)NC(=O)[C@@H](N)Cc1ccc(O)cc1)C(N)=O [TAPPI, Tyr-D-Ala-Phe-Phe-Ile-NH2] (H-Y[dA]FFI-NH2) | 1
